# MEASURED TARGET: PDE4B (Homo sapiens)
# ASSAY: Scintillation Proximity Assay (SPA) of PDE4B enzyme activity ([H3]-cAMP cleavage)
# Format: biochemical
# STATED CONDITIONS: test substance 1 μM; one-hour incubation of [H3]-cAMP with PDE4B enzyme at 30° C.
I'd appreciate it if you could supply inhibition at 1 µM values for the items below.
// units = %; emit number, no label

Provide value of inhibition at 1 µM for this record tested with PDE4B (Homo sapiens): N#CC1(c2ccccc2)CCN(c2nc3c(c(NC4(CO)CC4)n2)[S+]([O-])CC3)CC1 (stereo not shown)
94

Provide value of inhibition at 1 µM for this record tested with PDE4B (Homo sapiens): Cc1noc(C2CCN(c3nc4c(c(Nc5cccc(F)c5)n3)[S+]([O-])CC4)CC2)n1 (stereo not shown)
96

Provide value of inhibition at 1 µM for this record tested with PDE4B (Homo sapiens): CC(C)[C@H](CO)Nc1nc(N2CCC(c3cccc(O)c3)CC2)nc2c1[S+]([O-])CC2 (stereo partly shown)
93

Provide value of inhibition at 1 µM for this record tested with PDE4B (Homo sapiens): [O-][S+]1CCc2nc(N3CCC(c4ccncc4)CC3)nc(NC3CCOCC3)c21 (stereo not shown)
92

====

# MEASURED TARGET: UniProt:Q07343
# ASSAY: Scintillation Proximity Assay (SPA) of PDE4B enzyme activity ([H3]-cAMP cleavage)
# Assay type: biochemical
# STATED CONDITIONS: test substance 1 μM; one-hour incubation of [H3]-cAMP with PDE4B enzyme at 30° C.
Structures can show the parent of a compound that is named as a salt.
I'd appreciate it if you could supply inhibition at 1 µM values for the items below.
Provide a numeric answer, followed by its unit.

Provide value of inhibition at 1 µM for this record tested with UniProt:Q07343: [O-][S+]1CCc2nc(N3CCC(c4ccncc4)CC3)nc(NC3(CO)CC3)c21 (stereo not shown) [Example 34]
92%

Provide value of inhibition at 1 µM for this record tested with UniProt:Q07343: COC(=O)c1cccc(C2CCN(c3nc4c(c(N[C@@H](CO)C(C)C)n3)[S+]([O-])CC4)CC2)c1 (stereo partly shown) [Example 151]
94%

Provide value of inhibition at 1 µM for this record tested with UniProt:Q07343: COC(=O)c1cccc(C2CCN(c3nc4c(c(NC5(CO)CC5)n3)[S+]([O-])CC4)CC2)c1 (stereo not shown) [Example 104]
95%

Provide value of inhibition at 1 µM for this record tested with UniProt:Q07343: [O-][S+]1CCc2nc(N3CCC(c4nc(-c5ccncc5)no4)CC3)nc(Nc3cccc(F)c3)c21 (stereo not shown) [Example 147, Trifluoroacetate]
95%

====

# MEASURED TARGET: PDE4B (Homo sapiens, UniProt Q07343)
# Sequence (Q07343 whole entry, species assumed): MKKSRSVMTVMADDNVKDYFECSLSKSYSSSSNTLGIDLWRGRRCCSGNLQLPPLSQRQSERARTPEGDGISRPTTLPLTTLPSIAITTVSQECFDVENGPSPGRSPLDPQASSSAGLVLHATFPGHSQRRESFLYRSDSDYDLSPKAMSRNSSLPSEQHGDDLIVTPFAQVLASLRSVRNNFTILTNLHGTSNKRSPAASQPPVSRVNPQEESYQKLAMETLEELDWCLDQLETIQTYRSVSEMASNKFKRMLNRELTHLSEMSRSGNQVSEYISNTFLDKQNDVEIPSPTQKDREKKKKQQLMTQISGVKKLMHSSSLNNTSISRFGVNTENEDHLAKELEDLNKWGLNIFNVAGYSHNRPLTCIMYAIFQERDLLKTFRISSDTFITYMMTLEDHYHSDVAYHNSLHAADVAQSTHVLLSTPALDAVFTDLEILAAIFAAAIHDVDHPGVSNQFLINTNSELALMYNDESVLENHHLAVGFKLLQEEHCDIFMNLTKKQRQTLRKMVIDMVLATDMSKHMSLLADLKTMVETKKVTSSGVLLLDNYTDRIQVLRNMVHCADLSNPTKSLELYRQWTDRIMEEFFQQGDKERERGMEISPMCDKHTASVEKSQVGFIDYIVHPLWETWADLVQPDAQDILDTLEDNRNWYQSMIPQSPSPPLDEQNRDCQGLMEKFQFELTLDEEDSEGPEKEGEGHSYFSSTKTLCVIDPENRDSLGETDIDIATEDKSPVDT
# ASSAY: Scintillation Proximity Assay (SPA) of PDE4B enzyme activity ([H3]-cAMP cleavage)
# Format: biochemical
# STATED CONDITIONS: test substance 1 μM; one-hour incubation with [H3]-cAMP at 30° C.
QUANTITY MEASURED: inhibition at 1 µM
Provide a numeric answer, followed by its unit.

Quick one: inhibition at 1 µM for [O-][S+]1CCc2nc(N3CCC(COCc4ccccc4)(c4ccc(Cl)cc4)CC3)nc(Nc3cccc(F)c3)c21 (stereo not shown) ?
89%

Quick one: inhibition at 1 µM for [O-][S+]1CCc2nc(N3CCC(Oc4ccc(Cl)c(Cl)c4)CC3)nc(NC3CCOCC3)c21 (stereo not shown) ?
92%

Quick one: inhibition at 1 µM for CC(C)(C)OC(=O)NC1CC1Nc1nc(N2CCC(c3ccc(Cl)cc3)CC2)nc2c1[S+]([O-])CC2 (stereo not shown) ?
94%

Quick one: inhibition at 1 µM for COC1(c2ccc(Cl)cc2)CCN(c2nc3c(c(NC4CCOCC4)n2)[S+]([O-])CC3)CC1 (stereo not shown) ?
89%

====

I'd appreciate it if you could supply inhibition at 1 µM values for the items below.
# MEASURED TARGET: PDE4B (Homo sapiens, UniProt Q07343)
# ASSAY: Scintillation Proximity Assay (SPA) of PDE4B enzyme activity ([H3]-cAMP cleavage)
# Assay type: biochemical
# STATED CONDITIONS: test substance 1 μM; one-hour incubation with [H3]-cAMP at 30° C.
// units = %; emit number, no label

Provide value of inhibition at 1 µM for this record tested with PDE4B (Homo sapiens, UniProt Q07343): [O-][S+]1CCc2nc(N3CCC(c4nnc(-c5ccccc5)o4)CC3)nc(NC3(CO)CC3)c21 (stereo not drawn)
91

Provide value of inhibition at 1 µM for this record tested with PDE4B (Homo sapiens, UniProt Q07343): [O-][S+]1CCc2nc(N3CCC(c4nnc(-c5ccccc5)o4)CC3)nc(NC3CCOCC3)c21 (stereo not drawn)
95

Provide value of inhibition at 1 µM for this record tested with PDE4B (Homo sapiens, UniProt Q07343): CC(C)N1CCc2ccc(OC3CCN(c4nc5c(c(NC6CCOCC6)n4)[S+]([O-])CC5)CC3)cc2CC1 (stereo not drawn)
87

Provide value of inhibition at 1 µM for this record tested with PDE4B (Homo sapiens, UniProt Q07343): CC(C)[C@H](CO)Nc1nc(N2CCC(CNS(C)(=O)=O)(c3ccccc3)CC2)nc2c1[S+]([O-])CC2 (stereo partly drawn)
88

Provide value of inhibition at 1 µM for this record tested with PDE4B (Homo sapiens, UniProt Q07343): NC1CC1Nc1nc(N2CCC(c3ccc(Cl)cc3)CC2)nc2c1[S+]([O-])CC2 (stereo not drawn) [Example 233]
93

Provide value of inhibition at 1 µM for this record tested with PDE4B (Homo sapiens, UniProt Q07343): CC(C)C(=O)N1CCc2ccc(OC3CCN(c4nc5c(c(NC6CCOCC6)n4)[S+]([O-])CC5)CC3)cc2CC1 (stereo not drawn)
79

Provide value of inhibition at 1 µM for this record tested with PDE4B (Homo sapiens, UniProt Q07343): Cc1nn(C)cc1C(C)NC(=O)c1ccc(C2CCN(c3nc4c(c(NC5CCOCC5)n3)[S+]([O-])CC4)CC2)cc1 (stereo not drawn)
94

Provide value of inhibition at 1 µM for this record tested with PDE4B (Homo sapiens, UniProt Q07343): CC(C)[C@H](CO)Nc1nc(N2CCC(CO)(c3ccc(Cl)cc3)CC2)nc2c1[S+]([O-])CC2 (stereo partly drawn)
86

Provide value of inhibition at 1 µM for this record tested with PDE4B (Homo sapiens, UniProt Q07343): CC(C)c1ccccc1OC1CCN(c2nc3c(c(NC4CCOCC4)n2)[S+]([O-])CC3)CC1 (stereo not drawn)
95

Provide value of inhibition at 1 µM for this record tested with PDE4B (Homo sapiens, UniProt Q07343): [O-][S+]1CCc2nc(N3CCC(OCc4ccccc4)CC3)nc(NC3CCOCC3)c21 (stereo not drawn)
91

Provide value of inhibition at 1 µM for this record tested with PDE4B (Homo sapiens, UniProt Q07343): COCC(=O)NCC1(c2ccccc2)CCN(c2nc3c(c(N[C@H]4CCC(=O)N(C)C4)n2)[S+]([O-])CC3)CC1 (stereo partly drawn)
96

Provide value of inhibition at 1 µM for this record tested with PDE4B (Homo sapiens, UniProt Q07343): COC1(c2ccc(Cl)cc2)CCN(c2nc3c(c(N[C@H]4CCC(=O)N(C)C4)n2)[S+]([O-])CC3)CC1 (stereo partly drawn)
95

Provide value of inhibition at 1 µM for this record tested with PDE4B (Homo sapiens, UniProt Q07343): [O-][S+]1CCc2nc(N3CCC(c4n[nH]c5ccccc45)CC3)nc(NC3(CO)CC3)c21 (stereo not drawn)
93

Provide value of inhibition at 1 µM for this record tested with PDE4B (Homo sapiens, UniProt Q07343): CN1C[C@@H](Nc2nc(N3CCC(c4nc(-c5ccncc5)no4)CC3)nc3c2[S+]([O-])CC3)CCC1=O (stereo partly drawn)
97

Provide value of inhibition at 1 µM for this record tested with PDE4B (Homo sapiens, UniProt Q07343): COCC(=O)NCC1(c2ccccc2)CCN(c2nc3c(c(NC4(CO)CC4)n2)[S+]([O-])CC3)CC1 (stereo not drawn)
80

====

I'd appreciate it if you could supply inhibition at 1 µM values for the items below.
# MEASURED TARGET: UniProt Q07343
# ASSAY: Scintillation Proximity Assay (SPA) of PDE4B enzyme activity ([H3]-cAMP cleavage)
# Type: biochemical
# STATED CONDITIONS: test substance 1 μM; one-hour incubation of [H3]-cAMP with PDE4B enzyme at 30° C.
# Experimental: The inhibitions (in %) at 1 μM of the individual Example substances are given in the following Table of Examples and were determined as follows: […] After this incubation, the reaction is stopped by the addition of the beads. […] If the substance is capable of inhibiting the enzymatic activity of the PDE4B, less [H3]-AMP is produced during the incubation phase and fewer scintillation events can be measured.
// units = %; emit number, no label

Quick one: inhibition at 1 µM for [O-][S+]1CCc2nc(N3CCC(c4c[nH]c5ccccc45)CC3)nc(Nc3cccc(F)c3)c21 (stereo not shown) ?
96

Quick one: inhibition at 1 µM for CCc1[nH]c2ccc(F)cc2c1C1CCN(c2nc3c(c(NC4CCOCC4)n2)[S+]([O-])CC3)CC1 (stereo not shown) ?
93

Quick one: inhibition at 1 µM for [O-][S+]1CCc2nc(N3CCC(c4cc(-c5ccco5)n[nH]4)CC3)nc(NC3CCOCC3)c21 (stereo not shown) ?
96

Quick one: inhibition at 1 µM for CN1C[C@@H](Nc2nc(N3CCC(c4c[nH]cn4)CC3)nc3c2[S+]([O-])CC3)CCC1=O (stereo partly shown) ?
95

Quick one: inhibition at 1 µM for CC(C)[C@H](CO)Nc1nc(N2CCC3(CC2)OC(=O)Nc2ccccc23)nc2c1[S+]([O-])CC2 (stereo partly shown) ?
83

Quick one: inhibition at 1 µM for CC(C)[C@H](CO)Nc1nc(N2CCC3(CC2)c2ccccc2NC(=O)N3C)nc2c1[S+]([O-])CC2 (stereo partly shown) ?
60

Quick one: inhibition at 1 µM for [O-][S+]1CCc2nc(N3CCC(c4nc5ccccc5o4)CC3)nc(NC3CCOCC3)c21 (stereo not shown) ?
97

The measurements presented in this section are drawn from patent US8754073B2.
